FYI, the data here is from PubChem BioAssay AID778.

# measured-target: Cytochrome P450 2C19 (Homo sapiens)
# assay-comment: blockers of cytochrome P450 2C19 activity – biochemical, luminescence, ADME assay, primary screen (AID 778);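 also: plate controls were negative control wells for no effect and 2.5 mM tranylcypromine positive control for full effect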
# applied-conditions: CYP2C19 Supersomes, luciferin-H EGE luminescence, 30 min; at 5 µM; stronger effect = higher value
About 20,000 (21%) of roughly 96,000 compounds were called active. Only a sample is shown.
Kindly supply the reported inhibition values for the records listed here.

Record excerpt, results attached:
Cc1cnc(NC(=O)CSc2nnc(C)s2)s1 | 19.7% (inactive)
COc1ccc(N2C(=O)CN=C2Nc2cccc(C)c2C)cc1OC | 17.1% (inactive)

Parameter requested: inhibition. Apply to each item below.
1. COc1ccc(CN2C(=O)CN=C2Nc2ccc(C)cc2C)cc1
2. COC(=O)c1c(CCl)noc1C(=O)NC(C)C
3. O=C(CSc1nc2c(cnn2-c2ccc(F)cc2)c(=O)[nH]1)N1CCCCCC1

["82.7% (active)", "10.5% (inactive)", "2.3% (inactive)"]

* * *

# measured-target: Cytochrome P450 2C19 (Homo sapiens) (UniProt P33261)
# Sequence (P33261 whole entry, looked up): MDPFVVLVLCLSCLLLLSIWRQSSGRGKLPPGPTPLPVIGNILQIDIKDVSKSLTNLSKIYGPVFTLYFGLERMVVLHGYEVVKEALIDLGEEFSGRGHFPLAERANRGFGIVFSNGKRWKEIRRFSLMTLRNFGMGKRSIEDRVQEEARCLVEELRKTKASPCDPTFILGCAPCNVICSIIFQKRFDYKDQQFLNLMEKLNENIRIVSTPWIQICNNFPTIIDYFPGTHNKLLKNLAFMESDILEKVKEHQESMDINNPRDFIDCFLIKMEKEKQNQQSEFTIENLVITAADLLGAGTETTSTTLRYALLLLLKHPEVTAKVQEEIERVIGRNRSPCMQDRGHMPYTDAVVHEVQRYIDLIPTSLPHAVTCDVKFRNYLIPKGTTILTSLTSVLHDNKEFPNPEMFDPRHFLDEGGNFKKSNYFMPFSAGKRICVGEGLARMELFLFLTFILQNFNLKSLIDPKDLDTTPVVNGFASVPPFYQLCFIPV
# assay-comment: blockers of cytochrome P450 2C19 activity – biochemical, luminescence, ADME assay, primary screen (AID 778);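 also: plate controls were negative control wells for no effect and 2.5 mM tranylcypromine positive control for full effect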
# applied-conditions: CYP2C19 Supersomes, luciferin-H EGE luminescence, 30 min; at 5 µM; stronger effect = higher value
The whole screen tested about 96,000 compounds, of which about 20,000 (21%) were called active. Only a sample is shown.
Kindly state inhibition for each of the entries shown.
Answers are plain numbers, in %.

Cc1cc(C)nc(NC(=O)Nc2ccccc2C(F)(F)F)n1 | 21
O=S(=O)(NCc1cccnc1)c1ccc(Cl)nc1 | 13.3
Cc1cc(Cl)c(S(=O)(=O)NCc2cccnc2)cc1OCC(N)=O | -7.3
Cc1noc(NS(=O)(=O)c2ccc(N/C=C/C(=O)c3ccccc3)cc2)c1C | -5.7
Clc1ccc(Nc2nc(-c3cccs3)cs2)nc1 | 0.8
NS(=O)(=O)c1ccc(Nc2nc(-c3ccccc3)cs2)cc1 | 28.5
CCn1c(O)c(N=NC2=NC(=O)CS2)c2cc(C)ccc21 | 14.8
c1cnc(Nc2nc(-c3ccc4ccccc4c3)cs2)nc1 | -3.4

Count: 5. Required value per item: inhibition.
1. Oc1ccc(-c2csc(Nc3cccnc3)n2)cc1
2. CCOC(=O)C1CN(S(=O)(=O)c2ccc(F)cc2)C1
3. CCOc1cc(N2CCOCC2)c(OCC)cc1NC(=O)COc1cccc2cccnc12
4. COc1ccc2[nH]cc(/C=C(/C#N)S(=O)(=O)c3ccccc3)c2c1
5. CSc1ccccc1NC(=O)c1cc(C2CC2)on1

1: 78.4; 2: 43.8; 3: 3.8; 4: 99.8; 5: 31.1

State recorded inhibition for all listed compounds.
1. c1ccc(Nc2nc(-c3ccncc3)cs2)nc1
2. O=S(=O)(NCc1cccnc1)c1ccc(Br)s1

[98.6, 60.4]

* * *

# measured-target: Cytochrome P450 2C19 (Homo sapiens)
# assay-comment: blockers of cytochrome P450 2C19 activity – biochemical, luminescence, ADME assay, primary screen (AID 778);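 also: plate controls were negative control wells for no effect and 2.5 mM tranylcypromine positive control for full effect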
# applied-conditions: CYP2C19 Supersomes, luciferin-H EGE luminescence, 30 min; at 5 µM; stronger effect = higher value
Among all 96,000 compounds or so, about 20,000 (21%) were called active. A selection follows.
For each record, write down the corresponding inhibition.
Give bare numbers, in %.

Examples from the recorded data:
CCOc1cccc(C(=O)Nc2cnn(Cc3ccccc3)c2)c1 | 8.6
Cc1ccc(C(=O)COc2cccc(NC(=O)c3ccco3)c2)cc1 | 32.7
Cc1occc1C(=O)Nc1nnc(-c2ccncc2)s1 | 98.1
Cc1ccc(C(=O)Nc2nnc(-c3ccncc3)s2)o1 | 27

Shifting focus to the compound that follows.
Give the measured inhibition of Cc1occc1C(=O)Nc1cccc(Cn2cccn2)c1 .
57
